Entry source: paper PMC2926617

TESTED SYSTEM: P02, CarA α2 peptide (α2 only) (Myxococcus xanthus)
METHOD: ITC
pKd: −log10 of the molar value.
Readings of pKd for the listed binders
RECORDED ENDPOINT: pKd

# BINDER, TEST RESULT
data = [
    ("CarS antirepressor (natural protein, Myxococcus xanthus, UniProt Q06911 1-111, looked up) MIQDPSLIICHDVDGAPVRIGAKVKVVPHSEDGTISQRFLGQTGIVVGLVFDDPATQYPDDPLIQVLVEGLGEDLFFPEELELAPEWARNRIAQHRQAVRTGGRSSLERLP", 6.52),
    ("CarS1, functional truncated form of CarS (lacking the last 25 residues) (domain or fragment) MIQDPSLIICHDVDGAPVRIGAKVKVVPHSEDGTISQRFLGQTGIVVGLVFDDPATQYPDDPLIQVLVEGLGEDLFFPEELELAPE", 6.31),
]
